Origin of the recorded values: ChEMBL document CHEMBL1156251

Quick reference for MIC among some molecules
System: Escherichia coli
PROTOCOL DESCRIPTION: Antimicrobial activity against Escherichia coli
Type: functional
Give a bare numeral; the unit µg/mL is implied.

[[record]]
molecule = "CCNCC[C@H](NC(=O)CCCCC(C)CC)C(=O)N[C@H](C(=O)N[C@@H](CCN)C(=O)N[C@H]1CCNC(=O)[C@H]([C@@H](C)O)NC(=O)[C@H](CCN)NC(=O)[C@H](CCN)NC(=O)[C@H](CC(C)C)NC(=O)[C@@H](Cc2ccccc2)NC(=O)[C@H](CCN)NC1=O)[C@@H](C)O (stereo not given in full)"
endpoint_name = "MIC"
recorded_value = 0.112

[[record]]
molecule = "CCCCCCCCCC(=O)N[C@H](C(=O)N[C@@H](CCN)C(=O)N[C@H]1CCNC(=O)[C@H]([C@@H](C)O)NC(=O)[C@H](CCN)NC(=O)[C@H](CCN)NC(=O)[C@H](CC(C)C)NC(=O)[C@@H](Cc2ccccc2)NC(=O)[C@H](CCN)NC1=O)[C@@H](C)O [DECANOYL POLYMIXIN B NONAPEPTIDE]"
endpoint_name = "MIC"
recorded_value = 1

[[record]]
molecule = "CCC(C)CCCCC(=O)N[C@@H](CCNCc1ccccc1)C(=O)N[C@H](C(=O)N[C@@H](CCN)C(=O)N[C@H]1CCNC(=O)[C@H]([C@@H](C)O)NC(=O)[C@H](CCNCc2ccccc2)NC(=O)[C@H](CCNCc2ccccc2)NC(=O)[C@H](CC(C)C)NC(=O)[C@@H](Cc2ccccc2)NC(=O)[C@H](CCNCc2ccccc2)NC1=O)[C@@H](C)O (stereo not given in full)"
endpoint_name = "MIC"
recorded_value = 5

[[record]]
molecule = "CCC(C)CCCCC(=O)N[C@@H](CC/N=C/c1ccc(O)c(OC)c1)C(=O)N[C@@H](C(=O)N[C@@H](CCN)C(=O)N[C@H]1CCNC(=O)[C@@H]([C@@H](C)O)NC(=O)[C@H](CC/N=C/c2ccc(O)c(OC)c2)NC(=O)[C@H](CC/N=C/c2ccc(O)c(OC)c2)NC(=O)[C@H](CC(C)C)NC(=O)[C@@H](CC(C)C)NC(=O)[C@H](CC/N=C/c2ccc(O)c(OC)c2)NC1=O)[C@@H](C)O (stereo not given in full)"
endpoint_name = "MIC"
recorded_value = 5.5


Enquiry: Please look up its MIC: CCCCC(=O)N[C@@H](CCN)C(=O)N[C@@H](C(=O)N[C@@H](CCN)C(=O)N[C@H]1CCNC(=O)[C@@H]([C@@H](C)O)NC(=O)[C@H](CCN)NC(=O)[C@H](CCN)NC(=O)[C@H](CC(C)C)NC(=O)[C@@H](Cc2ccccc2)NC(=O)[C@H](CCN)NC1=O)[C@@H](C)O
Return: 11

* * *

Quick reference for MIC among some molecules
System: Escherichia coli
PROTOCOL DESCRIPTION: Antimicrobial activity against Escherichia coli
Type: functional

// solved cases for MIC follow
[[record]]
molecule = "CCCCCCCC(=O)N[C@@H](CCN)C(=O)N[C@H](C(=O)N[C@@H](CCN)C(=O)N[C@H]1CCNC(=O)[C@H]([C@@H](C)O)NC(=O)[C@H](CCNC(C)C)NC(=O)[C@H](CCN)NC(=O)[C@H](CC(C)C)NC(=O)[C@@H](Cc2ccccc2)NC(=O)[C@H](CCN)NC1=O)[C@@H](C)O"
recorded_value = "0.537 µg/mL"

[[record]]
molecule = "CCC(C)CCCCC(=O)N[C@@H](CCCCN)C(=O)N[C@H](C(=O)N[C@@H](CCCCN)C(=O)N[C@H]1CCNC(=O)[C@H]([C@@H](C)O)NC(=O)[C@H](CCCCN)NC(=O)[C@H](CCCCN)NC(=O)[C@H](CC(C)C)NC(=O)[C@@H](Cc2ccccc2)NC(=O)[C@H](CCCCN)NC1=O)[C@@H](C)O (stereo partly drawn)"
recorded_value = "0.2 µg/mL"


Now turn to the next molecule.
Enquiry: Please look up its MIC: CCCNCC[C@@H]1NC(=O)[C@H](CCN)NC(=O)[C@H](CC(C)C)NC(=O)[C@@H](Cc2ccccc2)NC(=O)[C@H](CCN)NC(=O)[C@@H](NC(=O)[C@H](CCN)NC(=O)[C@@H](NC(=O)[C@H](CCN)NC(=O)CCCCC(C)CC)[C@@H](C)O)CCNC(=O)[C@H]([C@@H](C)O)NC1=O (stereo partly drawn)
Return: 0.995 µg/mL

* * *

System: Escherichia coli
PROTOCOL DESCRIPTION: Antimicrobial activity against Escherichia coli
Assay type: functional
ENDPOINT NAME: MIC (µg/mL)
Give a bare numeral; the unit µg/mL is implied.

// solved cases for MIC follow
[[record]]
molecule = "CCC(C)CCCCC(=O)N[C@@H](CCN)C(=O)N[C@H](C(=O)N[C@@H](CCN)C(=O)N[C@H]1CCNC(=O)[C@H]([C@@H](C)O)NC(=O)[C@H](CCN)NC(=O)[C@H](CCN)NC(=O)[C@H]([C@@H](C)CC)NC(=O)[C@@H](CC(C)C)NC(=O)[C@H](CCN)NC1=O)[C@@H](C)O (stereo partly drawn)"
target_of_assay = "Escherichia coli"
endpoint_name = "MIC"
recorded_value = 0.4

[[record]]
molecule = "CCCCCCCC(=O)N[C@@H](CCN)C(=O)N[C@H](C(=O)N[C@@H](CCN)C(=O)N[C@H]1CCNC(=O)[C@H]([C@@H](C)O)NC(=O)[C@H](CCNC(=O)[C@H](N)CCSC)NC(=O)[C@H](CCN)NC(=O)[C@H](CC(C)C)NC(=O)[C@@H](Cc2ccccc2)NC(=O)[C@H](CCN)NC1=O)[C@@H](C)O"
target_of_assay = "Escherichia coli"
endpoint_name = "MIC"
recorded_value = 0.77


Enquiry: Please look up its MIC: CCC(C)CCCCC(=O)N[C@@H](CCNC(=O)CN)C(=O)N[C@H](C(=O)N[C@@H](CCN)C(=O)N[C@H]1CCNC(=O)[C@H]([C@@H](C)O)NC(=O)[C@H](CCN)NC(=O)[C@H](CCN)NC(=O)[C@H](CC(C)C)NC(=O)[C@@H](Cc2ccccc2)NC(=O)[C@H](CCN)NC1=O)[C@@H](C)O (stereo partly drawn)
Return: 0.028

* * *

Test system: Escherichia coli
PROTOCOL DESCRIPTION: Antimicrobial activity against Escherichia coli
Format: functional
Where a SMILES comes first, the peptide text is derived from it. Bridges are numbered along the chain shown (N, C = ends). [ ]: non-standard residue; d: D form. The star is where a group is joined. Octanoyl(6-Me) = CCC(C)CCCCC(=O)*; Octanoyl = CCCCCCCC(=O)*; Dab = NCC[C@H](N)C(=O)O; Ava = NCCCCC(=O)O
Quick reference for MIC among some compounds
Give a bare numeral; the unit µg/mL is implied.

[[record]]
compound = "CCC(C)CCCCC(=O)N[C@@H](CCNC(C)=O)C(=O)N[C@H](C(=O)N[C@@H](CCN)C(=O)N[C@H]1CCNC(=O)[C@H]([C@@H](C)O)NC(=O)[C@H](CCN)NC(=O)[C@H](CCN)NC(=O)[C@H](CC(C)C)NC(=O)[C@@H](Cc2ccccc2)NC(=O)[C@H](CCN)NC1=O)[C@@H](C)O (some centres undefined)"
value_unit = "µg/mL"
recorded_value = 1.3


Enquiry: Please look up its MIC: CCC(C)CCCCC(=O)N[C@@H](CCNCc1ccccc1)C(=O)N[C@H](C(=O)N[C@@H](CCN)C(=O)N[C@H]1CCNC(=O)[C@H]([C@@H](C)O)NC(=O)[C@H](CCNCc2ccccc2)NC(=O)[C@H](CCNCc2ccccc2)NC(=O)[C@H](CC(C)C)NC(=O)[C@@H](CC(C)C)NC(=O)[C@H](CCNCc2ccccc2)NC1=O)[C@@H](C)O (some centres undefined)
Return: 5

Enquiry: What do we get for CCCCCCCC(=O)N[C@@H](CCN)C(=O)N[C@H](C(=O)N[C@@H](CCN)C(=O)N[C@H]1CCNC(=O)[C@H]([C@@H](C)O)NC(=O)[C@H](CCNC(=O)[C@@H](N)CCCNC(=N)N)NC(=O)[C@H](CCN)NC(=O)[C@H](CC(C)C)NC(=O)[C@@H](Cc2ccccc2)NC(=O)[C@H](CCN)NC1=O)[C@@H](C)O (Octanoyl-[Dab]T[Dab][Dab][Dab][dF]L[Dab][Dab](Arg)T; lactam 4-C) ?
Return: 0.16

Enquiry: What do we get for CCC(C)CCCCC(=O)N[C@@H](CCN)C(=O)N[C@H](C(=O)N[C@@H](CCN)C(=O)N[C@H]1CCNC(=O)[C@H]([C@@H](C)O)NC(=O)[C@H](CCN)NC(=O)[C@H](CCN)NC(=O)CCCCNC(=O)[C@H](CCN)NC1=O)[C@@H](C)O (some centres undefined) ({Octanoyl(6-Me)}-[Dab]T[Dab][Dab][Dab][Ava][Dab][Dab]T; lactam 4-C) ?
Return: 500
